Consider the following molecules; for each one, report its mortality.
# Test system: Sitophilus zeamais
# ASSAY_OVERVIEW: Insecticidal activity against […] Sitophilus zeamais assessed as mortality at 5 ug/mg applied topically on thoracic tergite after 24 hr relative to control
# Assay type: functional
One number for each entry, in %.

Example results:
{"MOLECULE": "COC(=O)[C@H]1[C@H](/C=C/c2ccc(Br)cc2)C1(C)C", "ASSAY_VALUE": 0}
{"MOLECULE": "COC(=O)[C@H]1[C@H](/C=C\\c2ccc(Cl)cc2)C1(C)C", "ASSAY_VALUE": 0}
{"MOLECULE": "COC(=O)[C@H]1[C@H](/C=C/c2ccc(F)cc2)C1(C)C", "ASSAY_VALUE": 7.5}

Parameter requested: mortality. Apply to each item below.
1. COC(=O)[C@H]1[C@H](/C=C\c2ccc(F)cc2)C1(C)C
2. COC(=O)[C@H]1[C@H](/C=C\c2ccc(Br)cc2)C1(C)C

1. 10
2. 0

---

# Test system: Sitophilus zeamais
# ASSAY_OVERVIEW: Insecticidal activity against […] Sitophilus zeamais assessed as mortality at 5 ug/mg applied topically on thoracic tergite after 12 hr relative to control
# Assay type: functional
Consider the following compounds; for each one, report its mortality.
Give bare numbers, in %.

Parameter requested: mortality. Apply to each item below.
1. COC(=O)[C@H]1[C@H](/C=C/c2ccc([N+](=O)[O-])cc2)C1(C)C
2. CC1(C)C(C=C(Cl)Cl)C1C(=O)OCc1cccc(Oc2ccccc2)c1 (stereo not given)
3. COC(=O)[C@H]1[C@H](/C=C\c2ccc(Cl)cc2)C1(C)C
4. COC(=O)[C@H]1[C@H](/C=C\c2ccc(Br)cc2)C1(C)C
5. COC(=O)[C@H]1[C@H](/C=C\c2ccc([N+](=O)[O-])cc2)C1(C)C

1: 0; 2: 17.5; 3: 0; 4: 0; 5: 0

---

Consider the following compounds; for each one, report its mortality.
# System: Periplaneta americana
# ASSAY_OVERVIEW: Insecticidal activity against second-instar nymph stage of Periplaneta americana (American cockroach) assessed as mortality at 5 ug/mg applied topically on thoracic tergite after 24 hr (reference value: 1.7%)
# Type: functional
One number for each entry, in %.

{"COMPOUND": "COC(=O)[C@H]1[C@H](/C=C/c2ccc(Cl)cc2)C1(C)C", "ASSAY_VALUE": 95}

Parameter requested: mortality. Apply to each item below.
1. COC(=O)[C@H]1[C@H](/C=C/c2ccc([N+](=O)[O-])cc2)C1(C)C
2. COC(=O)[C@H]1[C@H](/C=C/c2ccc(Br)cc2)C1(C)C
3. COC(=O)[C@H]1[C@H](/C=C/c2ccc(F)cc2)C1(C)C
4. COC(=O)[C@H]1[C@H](/C=C\c2ccccc2)C1(C)C

1. 20
2. 65
3. 67.5
4. 37.4

Parameter requested: mortality. Apply to each item below.
1. COC(=O)[C@H]1[C@H](/C=C\c2ccc(F)cc2)C1(C)C
2. COC(=O)[C@H]1[C@H](/C=C\c2ccc(Cl)cc2)C1(C)C
3. COC(=O)[C@H]1[C@H](/C=C/c2ccccc2)C1(C)C
4. COC(=O)[C@H]1[C@H](/C=C\c2ccc([N+](=O)[O-])cc2)C1(C)C
5. COC(=O)[C@H]1[C@H](/C=C\c2ccc(Br)cc2)C1(C)C
6. CC1(C)C(C=C(Cl)Cl)C1C(=O)OCc1cccc(Oc2ccccc2)c1 (stereo unspecified) [PERMETHRIN]

1. 67.5
2. 100
3. 37.4
4. 24.3
5. 72.5
6. 97.5

---

# Tested on: Ascia monuste
# ASSAY_OVERVIEW: Insecticidal activity against second-instar larval stage of Ascia monuste orseis assessed as mortality at 5 ug/mg applied topically on thoracic tergite after 12 hr relative to control
# Format: functional
Just so you know, the groups by mortality go like this: bottom end: < 8%; midrange: ≥ 8% and < 70%; top end: ≥ 70%

{"COMPOUND": "COC(=O)[C@H]1[C@H](/C=C\\c2ccc(Br)cc2)C1(C)C", "CATEGORY": "midrange"}
{"COMPOUND": "COC(=O)[C@H]1[C@H](/C=C/c2ccc([N+](=O)[O-])cc2)C1(C)C", "CATEGORY": "bottom end"}
{"COMPOUND": "COC(=O)[C@H]1[C@H](/C=C/c2ccc(Br)cc2)C1(C)C", "CATEGORY": "bottom end"}

Dear colleague, I would appreciate it if you could identify the bin for COC(=O)[C@H]1[C@H](/C=C\c2ccc([N+](=O)[O-])cc2)C1(C)C and reply at your convenience.
midrange

Dear colleague, I would appreciate it if you could identify the bin for COC(=O)[C@H]1[C@H](/C=C/c2ccccc2)C1(C)C and reply at your convenience.
bottom end

Dear colleague, I would appreciate it if you could identify the bin for COC(=O)[C@H]1[C@H](/C=C\c2ccccc2)C1(C)C and reply at your convenience.
bottom end

Dear colleague, I would appreciate it if you could identify the bin for COC(=O)[C@H]1[C@H](/C=C/c2ccc(F)cc2)C1(C)C and reply at your convenience.
midrange

Dear colleague, I would appreciate it if you could identify the bin for COC(=O)[C@H]1[C@H](/C=C\c2ccc(Cl)cc2)C1(C)C and reply at your convenience.
top end

---

# System: Tuta absoluta
# ASSAY_OVERVIEW: Insecticidal activity against second-instar larval stage of Tuta absoluta assessed as mortality at 5 ug/mg applied topically on thoracic tergite after 12 hr (reference value: 1.7%)
# Type: functional
Quick rule: mortality of at least 70% means TRUE, below that means FALSE.

{"COMPOUND": "COC(=O)[C@H]1[C@H](/C=C\\c2ccc(Cl)cc2)C1(C)C", "CATEGORY": "TRUE"}
{"COMPOUND": "COC(=O)[C@H]1[C@H](/C=C/c2ccccc2)C1(C)C", "CATEGORY": "FALSE"}
{"COMPOUND": "COC(=O)[C@H]1[C@H](/C=C\\c2ccc(F)cc2)C1(C)C", "CATEGORY": "TRUE"}
{"COMPOUND": "COC(=O)[C@H]1[C@H](/C=C/c2ccc(Cl)cc2)C1(C)C", "CATEGORY": "FALSE"}

Given the entry COC(=O)[C@H]1[C@H](/C=C\c2ccc(Br)cc2)C1(C)C , answer whether its mortality meets or surpasses 70%.
FALSE

Given the entry COC(=O)[C@H]1[C@H](/C=C/c2ccc(F)cc2)C1(C)C , answer whether its mortality meets or surpasses 70%.
FALSE

Given the entry COC(=O)[C@H]1[C@H](/C=C/c2ccc(Br)cc2)C1(C)C , answer whether its mortality meets or surpasses 70%.
FALSE

Given the entry COC(=O)[C@H]1[C@H](/C=C/c2ccc([N+](=O)[O-])cc2)C1(C)C , answer whether its mortality meets or surpasses 70%.
FALSE

Given the entry COC(=O)[C@H]1[C@H](/C=C\c2ccccc2)C1(C)C , answer whether its mortality meets or surpasses 70%.
FALSE

Given the entry COC(=O)[C@H]1[C@H](/C=C\c2ccc([N+](=O)[O-])cc2)C1(C)C , answer whether its mortality meets or surpasses 70%.
FALSE

Given the entry CC1(C)C(C=C(Cl)Cl)C1C(=O)OCc1cccc(Oc2ccccc2)c1 (stereo unspecified) , answer whether its mortality meets or surpasses 70%.
TRUE

---

Consider the following molecules; for each one, report its mortality.
# System: Sitophilus zeamais
# ASSAY_OVERVIEW: Insecticidal activity against […] Sitophilus zeamais assessed as mortality at 5 ug/mg applied topically on thoracic tergite after 12 hr relative to control
# Type: functional
One number for each entry, in %.

Example results:
{"SUBSTANCE_SMILES": "COC(=O)[C@H]1[C@H](/C=C\\c2ccc(F)cc2)C1(C)C", "ASSAY_VALUE": 7.5}
{"SUBSTANCE_SMILES": "COC(=O)[C@H]1[C@H](/C=C/c2ccc(Cl)cc2)C1(C)C", "ASSAY_VALUE": 0}
{"SUBSTANCE_SMILES": "COC(=O)[C@H]1[C@H](/C=C/c2ccc(F)cc2)C1(C)C", "ASSAY_VALUE": 5}

Parameter requested: mortality. Apply to each item below.
1. COC(=O)[C@H]1[C@H](/C=C/c2ccc(Br)cc2)C1(C)C
2. COC(=O)[C@H]1[C@H](/C=C\c2ccccc2)C1(C)C
3. COC(=O)[C@H]1[C@H](/C=C/c2ccccc2)C1(C)C

[0, 10, 10]

---

# System: Sitophilus zeamais
# ASSAY_OVERVIEW: Insecticidal activity against […] Sitophilus zeamais assessed as mortality at 5 ug/mg applied topically on thoracic tergite after 24 hr relative to control
# Assay type: functional
ATTRIBUTE_MEASURED: mortality (%)
Numbers only, in %.

Example results:
{"COMPOUND": "COC(=O)[C@H]1[C@H](/C=C/c2ccc([N+](=O)[O-])cc2)C1(C)C", "mortality, %": 0}
{"COMPOUND": "COC(=O)[C@H]1[C@H](/C=C\\c2ccc([N+](=O)[O-])cc2)C1(C)C", "mortality, %": 0}
{"COMPOUND": "COC(=O)[C@H]1[C@H](/C=C/c2ccc(Cl)cc2)C1(C)C", "mortality, %": 0}
{"COMPOUND": "COC(=O)[C@H]1[C@H](/C=C/c2ccccc2)C1(C)C", "mortality, %": 12.5}
{"COMPOUND": "CC1(C)C(C=C(Cl)Cl)C1C(=O)OCc1cccc(Oc2ccccc2)c1 (stereo unspecified)", "mortality, %": 17.5}

# next compound below
Give the measured mortality of COC(=O)[C@H]1[C@H](/C=C\c2ccccc2)C1(C)C .
12.5
